# assayed.system: T1, Avi/HisMsIL18BPd (recombinant mouse IL-18BP with Avi and poly-His tags) (mouse, biotinylated with BirA on the Avi tag in some assays)
# T1 construct: also called murine IL-18BP; IL-18BP-Avi-His (mouse)
# T1 chain: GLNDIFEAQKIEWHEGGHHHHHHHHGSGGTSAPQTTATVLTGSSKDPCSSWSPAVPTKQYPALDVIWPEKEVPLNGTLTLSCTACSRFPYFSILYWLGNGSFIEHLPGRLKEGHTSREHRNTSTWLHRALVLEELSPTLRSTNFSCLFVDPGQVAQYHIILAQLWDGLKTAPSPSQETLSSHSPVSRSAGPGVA
# test.details: ELISA, coated IL-18BP
observed.property: ELISA binding ratio (fold-change over background) (fold over background)
The reply should contain only the number, in fold over background.

Exam item: # query: ELISA binding ratio (fold-change over background) of entry anti-IL18BP antibody BP-05 (antibody, human IgG1, V domains shown) VH: EVQLQQSGPELVKPGASVKIPCKASGYTFTDYNMDWVKQSHGKSLEWIGNINTNNGGTVYNQKFKDKATLTVDKSSSTAYMELRSLTSEDTAVYYCARSDTTVVASRYYALDYWGQGTSVTVSS VL: DIVLTQSPASLAMSLGKRATISCRASESVSIIGTDLIHWYQQKPGQPPKLLIYHASNLETGVPARFSGSGSRTDFTLTIDPVEEDDVAIYYCLQSRKIPPTFGGGTKLEIK
Marked response: 32.1

Exam item: # input binder: anti-IL18BP antibody BP-04 (antibody, V domains shown, also called BP-04 (hybridoma); BP-04 (parental)) VH: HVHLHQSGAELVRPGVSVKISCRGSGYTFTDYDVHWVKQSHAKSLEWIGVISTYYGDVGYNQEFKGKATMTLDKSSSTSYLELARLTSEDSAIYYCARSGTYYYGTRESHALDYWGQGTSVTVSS VL: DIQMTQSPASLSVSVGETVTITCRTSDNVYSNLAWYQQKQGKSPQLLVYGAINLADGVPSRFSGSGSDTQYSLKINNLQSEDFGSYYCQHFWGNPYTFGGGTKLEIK ; wanted: its ELISA binding ratio (fold-change over background)
Marked response: 39.1

Exam item: What does the data say about its ELISA binding ratio (fold-change over background)? Entry: anti-IL18BP antibody BP-11 (antibody, human IgG1, V domains shown) VH: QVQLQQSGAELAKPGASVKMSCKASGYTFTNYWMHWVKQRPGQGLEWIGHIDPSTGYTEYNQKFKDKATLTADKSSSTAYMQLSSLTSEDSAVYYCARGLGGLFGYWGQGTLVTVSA VL: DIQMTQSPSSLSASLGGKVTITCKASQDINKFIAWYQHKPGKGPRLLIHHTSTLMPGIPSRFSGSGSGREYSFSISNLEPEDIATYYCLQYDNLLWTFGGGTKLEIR
Marked response: 43.6

Exam item: Quick one: ELISA binding ratio (fold-change over background) of anti-IL18BP antibody BP-02 (antibody, human IgG1, V domains shown) VH: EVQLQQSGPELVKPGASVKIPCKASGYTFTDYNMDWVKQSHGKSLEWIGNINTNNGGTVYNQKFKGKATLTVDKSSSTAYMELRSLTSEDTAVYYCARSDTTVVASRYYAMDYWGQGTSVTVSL VL: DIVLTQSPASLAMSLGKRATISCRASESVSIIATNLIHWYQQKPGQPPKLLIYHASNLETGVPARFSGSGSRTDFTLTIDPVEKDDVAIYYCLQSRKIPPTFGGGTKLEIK ?
Marked response: 39.2

Exam item: ELISA binding ratio (fold-change over background) for anti-IL18BP antibody BP-16 (antibody, human IgG1, V domains shown) VH: QVQLVQSGAEVKKPGASVKVSCKASGYTFTTYDINWVRQAPGQGLEWMGIIGSYGGATSYAQKFQGRVTMTRDTSTSTVYMELSSLRSEDTAVYYCATAEEELRFDYWGQGTLVTVSS VL: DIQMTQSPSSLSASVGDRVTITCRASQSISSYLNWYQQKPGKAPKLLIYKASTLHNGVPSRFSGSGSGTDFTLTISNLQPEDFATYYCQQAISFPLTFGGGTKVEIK ?
Marked response: 22.1

Exam item: # query: ELISA binding ratio (fold-change over background) of entry anti-IL18BP antibody BP-03 (antibody, human IgG1, V domains shown) VH: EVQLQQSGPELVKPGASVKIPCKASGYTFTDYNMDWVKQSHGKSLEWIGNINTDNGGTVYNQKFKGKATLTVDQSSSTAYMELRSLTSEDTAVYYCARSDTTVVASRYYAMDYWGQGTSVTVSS VL: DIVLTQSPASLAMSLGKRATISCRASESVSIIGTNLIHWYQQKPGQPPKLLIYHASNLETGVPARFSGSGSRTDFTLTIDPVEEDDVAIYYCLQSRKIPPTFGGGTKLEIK
Marked response: 41.6

Exam item: If you can, please state the reported ELISA binding ratio (fold-change over background) value of anti-IL18BP antibody BP-15 (antibody, human IgG1, V domains shown) VH: QVQLVQSGAEVKKPGASVKVSCKASGYTFTTYDINWVRQAPGQGLEWMGIINPSGGSTSYAQKFQGRVTMTRDTSTSTVYMELSSLRSEDTAVYYCATGIGELDFDYWGQGTLVTVSS VL: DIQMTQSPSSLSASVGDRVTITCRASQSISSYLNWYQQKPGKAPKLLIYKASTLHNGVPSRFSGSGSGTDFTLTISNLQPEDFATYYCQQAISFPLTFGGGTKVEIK .
Marked response: 30.1
